studySystem: T1, human TREM2 expressed on cells (human, UniProt Q9NZC2 19-230)
T1 sequence: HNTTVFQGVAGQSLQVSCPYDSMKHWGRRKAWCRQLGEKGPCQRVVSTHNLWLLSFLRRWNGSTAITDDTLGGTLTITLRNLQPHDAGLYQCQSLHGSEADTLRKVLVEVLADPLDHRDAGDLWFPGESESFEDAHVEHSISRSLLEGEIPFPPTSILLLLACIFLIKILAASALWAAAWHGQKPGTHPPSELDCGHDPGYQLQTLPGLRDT
procedureText: cell-based or functional assay
Would you mind telling me the reported Survival huDCs plate bound IgG, AUC of each entry?
Form entry: value (AUC) — number only.

Reported Survival huDCs plate bound IgG, AUC of AL2p-2 (antibody, V domains shown, AL2p-h50 variant; Fab and IgG formats under one id) VH: QVQLVQSGAEVKKPGSSVKVSCKASGYAFSSSWMNWVRQAPGQGLEWMGRIYPGGGDTNYAQKFQGRVTITADESTSTAYMELSSLRSEDTAVYYCARLLRNQPGESYAMDYWGQGTLVTVSS VL: DVVMTQTPLSLSVTPGQPASISCRSSQSLVHSNGYTYLHWYLQKPGQSPQLLIYKVSNRFSGVPDRFSGSGSGTDFTLKISRVEAEDVGVYYCSQSTRVPYTFGQGTKLEIK : 461000

// AL2p-26 (antibody, V domains shown, Fab and IgG formats under one id) VH: QVQLVQSGAEVKKPGSSVKVSCKASGYAFSSHWMNWVRQAPGQGLEWMGRIYPGGGDTNYAQKRQGRVTITADESTSTAYMELSSLRSEDTAVYYCARLLRNQPGESYAMDYWGQGTLVTVSS VL: GVVMTQTPLSLSVTPGQPASISCRSSQSLIHSNGYTYLHWYLQKPGQSPQLLIYKVSNRRSGVPDRFSGSGSGTDFTLKISRVEAEDVGVYYCSQSTRVPYTFGQGTKLEIK : Survival huDCs plate bound IgG, AUC value = 1.11e+06

Just so you know, measured Survival huDCs plate bound IgG, AUC for AL2p-h50 (antibody, human IgG1, V domains shown, humanized, human IgG1; Fab and IgG formats under one id) VH: QVQLVQSGAEVKKPGSSVKVSCKASGYAFSSSWMNWVRQAPGQGLEWMGRIYPGDGDTNYAQKFQGRVTITADESTSTAYMELSSLRSEDTAVYYCARLLRNQPGESYAMDYWGQGTLVTVSS VL: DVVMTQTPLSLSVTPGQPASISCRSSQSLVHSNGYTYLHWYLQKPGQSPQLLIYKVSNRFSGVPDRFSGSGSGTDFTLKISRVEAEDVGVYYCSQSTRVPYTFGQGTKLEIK came out at 337000

GET /value?item= AL2p-h77 (antibody, human IgG1, V domains shown, humanized, human IgG1; Fab and IgG formats under one id; also called A2p-h77) VH: QVQLVQSGAEVKKPGASVKVSCKASGYAFSSSWMNWVRQAPGQRLEWIGRIYPGDGDTNYAQKFQGRVTITADTSASTAYMELSSLRSEDTAVYYCARLLRNQPGESYAMDYWGQGTLVTVSS VL: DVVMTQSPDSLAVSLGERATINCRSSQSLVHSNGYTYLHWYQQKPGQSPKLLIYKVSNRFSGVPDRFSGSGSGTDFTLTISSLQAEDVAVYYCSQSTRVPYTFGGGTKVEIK &field=Survival huDCs plate bound IgG, AUC returns 381000

The binder identified as AL2p-31 (antibody, V domains shown, Fab and IgG formats under one id) VH: QVQLVQSGAEVKKPGSSVKVSCKASGYAFSSQWMNWVRQAPGQGLEWMGRIYPGGGDTNYARKFQGRVTITADESTSTAYMELSSLRSEDTAVYYCARLLRNQPGESYAMDYWGQGTLVTVSS VL: GVVMTQTPLSLSVTPGQPASISCRSSQSLVHSNGYTYLHWYLQKPGQSPQLLIYKVSNRRSGVPDRFSGSGSGTDFTLKISRVEAEDVGVYYCSQSTRVPYTFGQGTKLEIK registered its Survival huDCs plate bound IgG, AUC at 1.21e+06

# Survival huDCs plate bound IgG, AUC of AL2p-23 (antibody, V domains shown, Fab and IgG formats under one id) VH: QVQLVQSGAEVKKPGSSVKVSCKASGYAFSSHWMNWVRQAPGQGLEWMGRIYPGDGQTNYAQKRQGRVTITADESTSTAYMELSSLRSEDTAVYYCARLLRNQPGESYAMDYWGQGTLVTVSS VL: GVVMTQTPLSLSVTPGQPASISCRTSQSLVHSNGYTYLHWYLQKPGQSPQLLIYKVSNRVSGVPDRFSGSGSGTDFTLKISRVEAEDVGVYYCSQSTRVPYTFGQGTKLEIK = 1.11e+06

Survival huDCs plate bound IgG, AUC measured on AL2p-5 (antibody, V domains shown, AL2p-h50 variant; Fab and IgG formats under one id; also called AL2-5) VH: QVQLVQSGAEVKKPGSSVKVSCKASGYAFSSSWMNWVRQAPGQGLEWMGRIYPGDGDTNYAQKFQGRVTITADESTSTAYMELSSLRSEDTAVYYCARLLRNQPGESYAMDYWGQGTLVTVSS VL: DVVMTQTPLSLSVTPGQPASISCRSSQSLVHSNRYTYLHWYLQKPGQSPQLLIYKVSNRFSGVPDRFSGSGSGTDFTLKISRVEAEDVGVYYCSQSTRVPYTFGQGTKLEIK = 710000

The measured Survival huDCs plate bound IgG, AUC associated with AL2p-36 (antibody, V domains shown, Fab and IgG formats under one id) VH: QVQLVQSGAEVKKPGASVKVSCKASGYAFSSSWMNWVRQAPGQRLEWIGRIYPGDGDTNYARKFQGRVTITADTSASTAYMELSSLRSEDTAVYYCARLLRNQPGASYAMDYWGQGTLVTVSS VL: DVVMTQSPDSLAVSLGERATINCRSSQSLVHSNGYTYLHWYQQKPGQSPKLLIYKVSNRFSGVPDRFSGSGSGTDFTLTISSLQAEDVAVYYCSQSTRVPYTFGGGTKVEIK reads 1.14e+06

# Survival huDCs plate bound IgG, AUC (binder: AL2p-15 (antibody, V domains shown, Fab and IgG formats under one id) VH: QVQLVQSGAEVKKPGSSVKVSCKASGYAFSSHWMNWVRQAPGQGLEWMGRIYPGDGDTNYAQKFQGRVTITADESTSTAYMELSSLRSEDTAVYYCARLLRNQPGESYAMDYWGQGTLVTVSS VL: GVVMTQTPLSLSVTPGQPASISCRSSSSLVHSNGYTYLHWYLQKPGQSPQLLIYKVSNRKSGVPDRFSGSGSGTDFTLKISRVEAEDVGVYYCSQSTRVPYTFGQGTKLEIK ) is 488000

Survival huDCs plate bound IgG, AUC measured on AL2p-9 (antibody, V domains shown, Fab and IgG formats under one id) VH: QVQLVQSGAEVKKPGSSVKVSCKASGYAFSRSWMNWVRQAPGQGLEWMGRIYPGDGDTNYAQKFQGRVTITADESTSTAYMELSSLRSEDTAVYYCARLLRNQPGASYAMDYWGQGTLVTVSS VL: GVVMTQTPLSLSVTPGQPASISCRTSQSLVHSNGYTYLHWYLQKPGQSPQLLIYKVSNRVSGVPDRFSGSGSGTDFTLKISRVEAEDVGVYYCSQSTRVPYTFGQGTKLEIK = 976000

The origin of these recorded values is patent US20200317776A1.
